This listing pairs compounds with measured pIC50.
Test system: RAW264.7
Assay: cells
Conditions: Mus musculus
Description: Antiinflammatory activity against mouse RAW264.7 cells assessed as reduction of LPS-induced NO production
pIC50: −log10 of the molar value.

{"STRUCTURE": "CC1=C(C)C(=O)N(Nc2ncnc3scc(-c4cccs4)c23)C1=O", "OP": "<", "pIC50": 5.00}
{"STRUCTURE": "CC1=CC(=O)N(Nc2nc(-c3cccs3)nc3scc(-c4cccs4)c23)C1=O", "OP": "=", "pIC50": 5.66}
{"STRUCTURE": "CC1=CC(=O)N(Nc2nc(-c3cccs3)nc3scc(C)c23)C1=O", "OP": "=", "pIC50": 5.72}
{"STRUCTURE": "CC1=CC(=O)N(Nc2nc(-c3cccs3)nc3scc(-c4cccc(OCCN(C)C)c4)c23)C1=O", "OP": "=", "pIC50": 5.12}
{"STRUCTURE": "CC1=CC(=O)N(Nc2nc(-c3cccs3)nc3scc(-c4cccc(OCCN5CCOCC5)c4)c23)C1=O", "OP": "=", "pIC50": 5.49}
{"STRUCTURE": "O=C1c2ccccc2C(=O)N1Nc1ncnc2scc(-c3cccs3)c12", "OP": "<", "pIC50": 5.00}
{"STRUCTURE": "CC1=CC(=O)N(Nc2nc(-c3cccs3)nc3scc(-c4ccc(O)cc4)c23)C1=O", "OP": "=", "pIC50": 6.09}
{"STRUCTURE": "COc1cccc2nc(-c3cccs3)nc(NN3C(=O)C=C(C)C3=O)c12", "OP": "=", "pIC50": 5.36}
{"STRUCTURE": "CC1=CC(=O)N(Nc2nc(-c3ccccc3)nc3scc(-c4cccs4)c23)C1=O", "OP": "=", "pIC50": 5.50}
{"STRUCTURE": "COc1cccc(-c2nc(NN3C(=O)C=C(C)C3=O)c3c(-c4cccs4)csc3n2)c1", "OP": "=", "pIC50": 5.46}

----------
Form field: pIC50 (one value per entry).
System: RAW264.7
Assay: cells
Settings: Mus musculus
pIC50: −log10 of the molar value.

{"STRUCTURE": "O=C1C=CC(=O)N1Nc1ncnc2scc(-c3cccs3)c12", "TESTED SYSTEM": "RAW264.7", "OP": "<", "pIC50": 5.00}
{"STRUCTURE": "CC1=CC(=O)N(Nc2nc(-c3ccncc3)nc3scc(-c4cccs4)c23)C1=O", "TESTED SYSTEM": "RAW264.7", "OP": "=", "pIC50": 5.68}
{"STRUCTURE": "CCOC(=O)Cc1csc2nc(-c3cccs3)nc(NN3C(=O)C=C(C)C3=O)c12", "TESTED SYSTEM": "RAW264.7", "OP": "=", "pIC50": 5.29}
{"STRUCTURE": "CC1=CC(=O)N(Nc2nc(-c3cccs3)nc3sccc23)C1=O", "TESTED SYSTEM": "RAW264.7", "OP": "=", "pIC50": 5.16}
{"STRUCTURE": "CC1=CC(=O)N(Nc2nc(-c3ccco3)nc3scc(-c4cccs4)c23)C1=O", "TESTED SYSTEM": "RAW264.7", "OP": "=", "pIC50": 5.28}
{"STRUCTURE": "COc1ccc(-c2nc(NN3C(=O)C=C(C)C3=O)c3c(-c4cccs4)csc3n2)cc1", "TESTED SYSTEM": "RAW264.7", "OP": "=", "pIC50": 5.55}
{"STRUCTURE": "CC1=CC(=O)N(Nc2ncnc3scc(-c4cccs4)c23)C1=O", "TESTED SYSTEM": "RAW264.7", "OP": "=", "pIC50": 5.60}
{"STRUCTURE": "CC1=CC(=O)N(Nc2nc(-c3cccs3)nc3scc(-c4ccc(OCCN5CCCCC5)cc4)c23)C1=O.Cl", "TESTED SYSTEM": "RAW264.7", "OP": "=", "pIC50": 5.77}
{"STRUCTURE": "CC1=CC(=O)N(Nc2nc(C3CC3)nc3scc(-c4cccs4)c23)C1=O", "TESTED SYSTEM": "RAW264.7", "OP": "=", "pIC50": 5.51}
{"STRUCTURE": "CC1=CC(=O)N(Nc2nc(-c3cccs3)nc3scc(-c4ccccc4)c23)C1=O", "TESTED SYSTEM": "RAW264.7", "OP": "=", "pIC50": 6.12}
{"STRUCTURE": "CC1=CC(=O)N(Nc2nc(-c3cccs3)nc3scc(-c4cccc(OCCN5CCCCC5)c4)c23)C1=O", "TESTED SYSTEM": "RAW264.7", "OP": "=", "pIC50": 5.67}
{"STRUCTURE": "O=C1c2ccncc2C(=O)N1Nc1ncnc2scc(-c3cccs3)c12", "TESTED SYSTEM": "RAW264.7", "OP": "<", "pIC50": 5.00}
{"STRUCTURE": "CC1=CC(=O)N(Nc2nc(-c3cccs3)nc3scc(-c4cccc(O)c4)c23)C1=O", "TESTED SYSTEM": "RAW264.7", "OP": "=", "pIC50": 5.91}
